Below are IC50 values measured for TNAP (Homo sapiens (Human)).
quantityName: IC50

> print(dat)
                                    compound                   measuredon  observedresult
 1  COC(=O)c1ccc2ncc(NS(=O)(=O)c3cc(OC)ccc3OC)cc2c1 [Example IX-8]  TNAP (Homo sapiens (Human))  100 to 1000 nM
 2  COc1cccc(-c2cncc(NS(=O)(=O)c3cc(Br)ccc3OC)c2)c1 [Example III-47]  TNAP (Homo sapiens (Human))        < 100 nM
 3  O=S(=O)(Nc1cncc(-c2ccc(OC(F)(F)F)cc2)c1)c1cc(Br)ccc1OC(F)(F)F [Example XI-4]  TNAP (Homo sapiens (Human))  100 to 1000 nM
 4  COc1ccc(Br)cc1S(=O)(=O)Nc1cncc(-c2ncccn2)c1 [Example III-92]  TNAP (Homo sapiens (Human))        < 100 nM
 5  O=S(=O)(Nc1cncc(-c2cnccn2)c1)c1cc(Br)ccc1OC(F)(F)F [Example XI-21]  TNAP (Homo sapiens (Human))  100 to 1000 nM
 6  CCCNC(=O)c1cncc(NS(=O)(=O)c2cc(Br)ccc2OC)c1 [Example IV-19]  TNAP (Homo sapiens (Human))  100 to 1000 nM
 7  COc1ccc(Br)cc1S(=O)(=O)Nc1cnc2ccc(C(=O)O)cc2c1 [Example IX-5]  TNAP (Homo sapiens (Human))  100 to 1000 nM
 8  CCN(CC)c1ccc(NS(=O)(=O)c2cc(OC)ccc2OC)cn1 [Example VIII-10]  TNAP (Homo sapiens (Human))       > 1000 nM
 9  COc1ccc(C(=O)N2CCN(C)CC2)cc1S(=O)(=O)Nc1cccnc1 [Example I-22]  TNAP (Homo sapiens (Human))       > 1000 nM
10  COC(=O)c1ccc(OC)c(S(=O)(=O)Nc2cnc3ccccc3c2)c1 [Example II-13]  TNAP (Homo sapiens (Human))        < 100 nM
11  CCNC(=O)c1ccc(OC)c(S(=O)(=O)Nc2cnc3ccccc3c2)c1 [Example II-16]  TNAP (Homo sapiens (Human))  100 to 1000 nM
12  COC(=O)c1ccc(-c2cncc(NS(=O)(=O)c3cc(OC)ccc3OC)c2)cc1 [Example III-28]  TNAP (Homo sapiens (Human))        < 100 nM
13  COc1ccc(OC(F)(F)F)cc1S(=O)(=O)Nc1cncc(C(=O)NC2CCCCC2)c1 [Example XII-22]  TNAP (Homo sapiens (Human))  100 to 1000 nM
14  COc1ccc(Cl)cc1S(=O)(=O)Nc1cncc(-c2cscn2)c1 [Example III-87]  TNAP (Homo sapiens (Human))        < 100 nM
15  COc1ccc(Br)cc1S(=O)(=O)Nc1cncc(-c2cccnc2)c1 [Example III-62]  TNAP (Homo sapiens (Human))        < 100 nM
16  COc1ccc(Br)cc1S(=O)(=O)Nc1cncc(-c2cnn(C)c2)c1 [Example III-89]  TNAP (Homo sapiens (Human))        < 100 nM
17  O=S(=O)(Nc1cncc(-c2ccc(F)cc2)c1)c1cc(Br)ccc1OC(F)(F)F [Example XI-9]  TNAP (Homo sapiens (Human))  100 to 1000 nM

Source listed as patent US10370333B2.
